System: human renal proximal tubular cells (RPTC)
method-notes: XTT assay for RPTC cells
Type: cell-based
condition-context: XTT assay 24 hours
readout-name: IC50 (µM)
Provide only the numeric value, understood in µM.

Query for human renal proximal tubular cells (RPTC): what IC50 does the record show for N.N.[Cl][Pt][Cl] [Cisplatin, reference compound] ? 46.4
